Reference source: patent US7452904B2

Target: human M2 receptors (Homo sapiens, UniProt P08172)
Construct: expressed in transfected cells; host or cells: CHO-K1
Sequence (P08172 1-466): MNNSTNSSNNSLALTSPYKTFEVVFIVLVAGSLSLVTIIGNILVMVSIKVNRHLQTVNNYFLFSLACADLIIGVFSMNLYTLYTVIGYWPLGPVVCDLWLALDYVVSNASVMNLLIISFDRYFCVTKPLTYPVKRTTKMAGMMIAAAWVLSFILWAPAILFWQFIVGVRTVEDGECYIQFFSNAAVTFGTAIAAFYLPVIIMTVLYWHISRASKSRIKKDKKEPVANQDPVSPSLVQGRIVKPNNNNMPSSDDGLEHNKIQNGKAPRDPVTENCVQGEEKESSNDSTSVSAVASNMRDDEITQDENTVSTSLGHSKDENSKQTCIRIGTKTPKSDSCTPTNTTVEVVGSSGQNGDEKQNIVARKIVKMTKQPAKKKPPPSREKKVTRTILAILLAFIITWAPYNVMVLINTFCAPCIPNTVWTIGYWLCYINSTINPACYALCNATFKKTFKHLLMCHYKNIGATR
Test: Binding test to human M2 muscarinic receptor ([3H]-NMS displacement), reported as M2/M3 selectivity
Conditions: ratio of Ki at cloned human M2 versus M3 receptors; ratios greater than 1 indicate M3 selective activity
Under this convention, TRUE denotes M2/M3 (ratio) strictly below 80 ratio and FALSE denotes M2/M3 (ratio) at or above 80 ratio.

Look over these answered cases.
[[record]]
molecule = "O=C(O[C@H]1CN2CCC1CC2)N1CCc2ccccc2[C@@H]1c1ccccc1 [SOLIFENACIN, solifenacin, reference compound]"
category_label = "TRUE"

[[record]]
molecule = "Cc1cccc(N(Cc2ccsc2)C(=O)O[C@H]2CN3CCC2CC3)c1.Cl"
category_label = "TRUE"

[[record]]
molecule = "Cl.O=C(O[C@H]1CN2CCC1CC2)N(Cc1ccc(Cl)s1)c1cccc(F)c1"
category_label = "FALSE"

[[record]]
molecule = "O=C(O[C@H]1C[N+]2(CCSc3ccccc3)CCC1CC2)N(Cc1cc(F)c(F)c(F)c1)c1ccccc1F.[Cl-]"
category_label = "FALSE"


Qu. Just wondering, is M2/M3 (ratio) of O=C(C[N+]12CCC(CC1)[C@@H](OC(=O)N(Cc1ccsc1)c1cccc(F)c1)C2)c1ccccc1.[Br-] below 80 ratio?
Ans. TRUE

* * *

Target: human M3 receptors (Homo sapiens, UniProt P20309)
Construct: expressed in transfected cells; host or cells: CHO-K1
Sequence (P20309 whole entry): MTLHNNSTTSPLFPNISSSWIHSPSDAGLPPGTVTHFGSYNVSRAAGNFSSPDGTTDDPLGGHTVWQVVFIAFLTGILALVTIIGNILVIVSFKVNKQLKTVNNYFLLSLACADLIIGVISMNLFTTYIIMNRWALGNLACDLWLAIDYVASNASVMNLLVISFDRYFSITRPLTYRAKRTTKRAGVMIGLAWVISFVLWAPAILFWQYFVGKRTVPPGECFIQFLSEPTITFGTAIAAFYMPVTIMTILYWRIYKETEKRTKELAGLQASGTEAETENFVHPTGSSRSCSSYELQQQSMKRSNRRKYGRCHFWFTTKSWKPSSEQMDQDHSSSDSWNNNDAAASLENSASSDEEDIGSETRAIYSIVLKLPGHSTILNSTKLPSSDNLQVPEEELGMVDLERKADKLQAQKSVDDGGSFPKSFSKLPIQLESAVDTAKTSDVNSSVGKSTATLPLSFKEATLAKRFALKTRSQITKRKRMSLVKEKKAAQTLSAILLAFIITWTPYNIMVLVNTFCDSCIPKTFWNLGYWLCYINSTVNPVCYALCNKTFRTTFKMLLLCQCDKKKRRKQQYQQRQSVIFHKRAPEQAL
Experiment: Binding test to human M3 muscarinic receptor ([3H]-NMS displacement)
Settings: membranes from CHO-K1 cells transfected with human M3 receptor; [3H]-NMS 0.3-0.5 nM, 60 min, 25° C.; mean of two independent experiments, each in duplicate
Parameter pKi: see the listing below.
pKi is a log-scale quantity: -log10 of the concentration expressed in molar.

These recorded examples may help you get a feel for the data.
[[record]]
molecule = "O=C(O[C@H]1CN2CCC1CC2)N1CCc2ccccc2[C@@H]1c1ccccc1 [SOLIFENACIN, solifenacin, reference compound]"
value_kind = "pKi"
reported_value = 8.08

[[record]]
molecule = "O=C(O[C@H]1C[N+]2(CCCOc3ccccc3)CCC1CC2)N(Cc1ccc(F)cc1)c1ccccc1.[Br-]"
value_kind = "pKi"
reported_value = 9.47

[[record]]
molecule = "Cc1cccc(N(Cc2ccsc2)C(=O)O[C@H]2CN3CCC2CC3)c1.Cl [Int. 32, hydrochloride]"
value_kind = "pKi"
reported_value = 9.82

[[record]]
molecule = "O=C(C[N+]12CCC(CC1)[C@@H](OC(=O)N(Cc1ccsc1)c1cccc(F)c1)C2)c1ccccc1.[Br-]"
value_kind = "pKi"
reported_value = 10.70


Qu. Quick check: pKi of O=C(O[C@H]1C[N+]2(CCSc3ccccc3)CCC1CC2)N(Cc1cc(F)c(F)c(F)c1)c1ccccc1F.[Cl-] ?
Ans. 10.22

Qu. Quick check: pKi of Cl.O=C(O[C@H]1CN2CCC1CC2)N(Cc1ccc(Cl)s1)c1cccc(F)c1 [Int. 29, hydrochloride] ?
Ans. 10.70
